- Procedure Text: Selectivity index, ratio of CC50 for human MT4 cells to EC50 for wild type Human immunodeficieny virus 1 3B infected in human MT4 cells
- Type: toxicity, cell-based
- Details: read-out: Ratio CC50/EC50
Give measured selectivity ratio for each item. Keep answers brief.
Respond with the number and no other words.

// query selectivity ratio value for entry CCc1c(CN2CCCc3ccccc32)nc(SCC(=O)c2ccc(C)cc2)[nH]c1=O
271

// query selectivity ratio value for entry CCc1c(CN2CCCc3ccccc32)nc(SCc2ccc(OC)cc2)[nH]c1=O
244

// query selectivity ratio value for entry O=C(CSc1nc(CN2CCCc3ccccc32)cc(=O)[nH]1)c1ccccc1
6

----------
- Procedure Text: Selectivity index, ratio of CC50 for human MT4 cells to EC50 for wild type Human immunodeficieny virus 1 3B infected in human MT4 cells
- Type: toxicity, cell-based
- Details: read-out: Ratio CC50/EC50
Give measured selectivity ratio for each item. Keep answers brief.
Respond with the number and no other words.

// query selectivity ratio value for entry CCc1c(CN2CCCc3ccccc32)nc(SCC(=O)c2ccc(C#N)cc2)[nH]c1=O
109

// query selectivity ratio value for entry CCc1c(CN2CCCc3ccccc32)nc(SCC(=O)c2ccc([N+](=O)[O-])cc2)[nH]c1=O
56

// query selectivity ratio value for entry CCc1c(CN2CCCc3ccccc32)nc(SCC(=O)c2ccc(OC)cc2)[nH]c1=O
164

// query selectivity ratio value for entry CCc1c(CN2CCCc3ccccc32)nc(SCc2ccc([N+](=O)[O-])cc2)[nH]c1=O
188

// query selectivity ratio value for entry CCc1c(CN2CCCc3ccccc32)nc(SCC(=O)c2ccc(F)cc2)[nH]c1=O
273

// query selectivity ratio value for entry CCc1c(CN2CCCc3ccccc32)nc(SCC(=O)c2ccc(Cl)cc2)[nH]c1=O
249

// query selectivity ratio value for entry CCc1c(CN2CCCc3ccccc32)nc(SCC(=O)c2ccccc2)[nH]c1=O
1220

// query selectivity ratio value for entry Cc1ccc(C(=O)CSc2nc(CN3CCCc4ccccc43)cc(=O)[nH]2)cc1
6
